Molecular target: human sphingosine kinase type 2 (hSPHK2) (Homo sapiens)
Sequence (Q9NRA0 whole entry): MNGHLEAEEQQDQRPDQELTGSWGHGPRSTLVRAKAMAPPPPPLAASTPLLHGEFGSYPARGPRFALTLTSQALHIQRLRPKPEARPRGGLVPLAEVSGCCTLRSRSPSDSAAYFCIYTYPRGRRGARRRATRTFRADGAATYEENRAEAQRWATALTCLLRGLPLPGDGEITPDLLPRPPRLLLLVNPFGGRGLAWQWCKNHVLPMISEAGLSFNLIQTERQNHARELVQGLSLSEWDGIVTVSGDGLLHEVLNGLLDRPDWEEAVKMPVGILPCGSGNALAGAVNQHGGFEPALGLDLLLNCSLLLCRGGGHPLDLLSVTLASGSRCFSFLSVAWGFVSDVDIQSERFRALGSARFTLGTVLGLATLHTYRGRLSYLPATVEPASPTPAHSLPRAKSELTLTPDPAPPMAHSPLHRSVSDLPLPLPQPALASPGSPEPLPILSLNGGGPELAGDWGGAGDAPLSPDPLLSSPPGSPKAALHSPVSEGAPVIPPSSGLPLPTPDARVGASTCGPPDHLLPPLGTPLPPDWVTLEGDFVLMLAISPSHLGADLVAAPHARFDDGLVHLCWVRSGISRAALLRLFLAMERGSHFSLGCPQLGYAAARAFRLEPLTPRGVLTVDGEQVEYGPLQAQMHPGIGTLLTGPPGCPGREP
Test: Sphingosine kinase assay, recombinant human SPHK2 ([32P]S1P product, scintillation counting)
Settings: read-out: activity hSPHK2 (range estimate of KI)

{"molecule": "CC(C)COc1ccc2cc(-c3noc([C@@H]4[C@@H](O)CCN4C(=N)N)n3)ccc2c1 [Compound 15A]", "assayed.system": "human sphingosine kinase type 2 (hSPHK2) (Homo sapiens)", "Ki": "> 10000 nM"}
{"molecule": "CCCCCCCCOc1ccc(-c2noc([C@@H]3C=CCN3C(=N)N)n2)cc1C(F)(F)F [Compound 21A]", "assayed.system": "human sphingosine kinase type 2 (hSPHK2) (Homo sapiens)", "Ki": "< 1000 nM"}
{"molecule": "N=C(N)N1C[C@H](O)C[C@H]1c1nc(-c2ccc(OCCCc3ccc(C(F)(F)F)cc3)c(C(F)(F)F)c2)no1 [Compound 33A]", "assayed.system": "human sphingosine kinase type 2 (hSPHK2) (Homo sapiens)", "Ki": "< 1000 nM"}
{"molecule": "N=C(N)N1CCC[C@H]1c1nc(-c2ccc(OCCCc3ccc(C(F)(F)F)cc3)c(C(F)(F)F)c2)no1 [Compound 32A]", "assayed.system": "human sphingosine kinase type 2 (hSPHK2) (Homo sapiens)", "Ki": "< 1000 nM"}
{"molecule": "CC1(C)CCC(C)(C)c2cc(COc3ccc4cc(-c5noc([C@@H]6CCCN6C(=N)N)n5)ccc4c3)ccc21 [Compound 71A]", "assayed.system": "human sphingosine kinase type 2 (hSPHK2) (Homo sapiens)", "Ki": "> 10000 nM"}
{"molecule": "CCCCCCOc1ccc(-c2noc([C@@H]3CCCN3C(=N)N)n2)cc1C(F)(F)F [Compound 12B]", "assayed.system": "human sphingosine kinase type 2 (hSPHK2) (Homo sapiens)", "Ki": "< 1000 nM"}
{"molecule": "N=C(N)N1CCC[C@H]1c1nc(-c2ccc3cc(OCc4cccc(Cl)c4)ccc3c2)no1 [Compound 68A]", "assayed.system": "human sphingosine kinase type 2 (hSPHK2) (Homo sapiens)", "Ki": "> 10000 nM"}
